# credit: PubChem BioAssay AID743359

- Tested on: isolated mouse liver mitochondria, Ca2+ swelling, A540 20 min
- experiment.description: mitochondrial swelling inhibition, absorbance readout – dry powder samples, uHTS hits, dose response (AID 743359)
The source made the active and inactive calls.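 The calls were made as follows: active = compounds whose half-maximal inhibitory concentration IC50 is 20 µM or lower; inactive = the rest.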
Entry note: the call must match one of true (1) (active), false (0) (inactive)

Answered examples (3):
smiles.representation | group
COc1ccc(Cl)cc1C(=O)Nc1ccc(CCN2CCCCC2)cc1 | true (1)
COc1ccc(Cl)cc1C(=O)Nc1ccccc1 | false (0)
COc1ccc(Cl)cc1S(=O)(=O)Nc1ccc(CN2CCCCC2)cc1 | false (0)

Ask: What did the test return for "O=C(Nc1ccccc1OCc1ccccc1)c1cc(-c2cccc(O)c2)on1" ?
Reply: false (0)

Ask: What did the test return for "Cc1ccc(-c2cc(C(=O)Nc3cccc(Cl)c3)no2)cc1" ?
Reply: false (0)

Ask: What did the test return for "O=S(=O)(Nc1ccc(CN2CCCCC2)cc1)c1cc(Cl)cc(Cl)c1" ?
Reply: false (0)

---

- System: isolated mouse liver mitochondria, Ca2+ swelling, A540 20 min
- experiment.description: mitochondrial swelling inhibition, absorbance readout – dry powder samples, uHTS hits, dose response (AID 743359)
Calls of active or inactive are those of the source.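 The calls were made as follows: active = compounds whose half-maximal inhibitory concentration IC50 is 20 µM or lower; inactive = the rest.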
IC50 for assorted compounds

Some compounds with recorded IC50:
smiles.representation | readout.label | value.observed
CN1CCN(c2ccc(NC(=O)c3ccc(OCc4ccccc4)cc3)cc2)CC1 | IC50 | > 50 µM (inactive)
CN1CCN(CCc2ccc(NS(=O)(=O)c3ccc(F)c(Cl)c3)cc2)CC1 | IC50 | > 50 µM (inactive)
CN1CCN(c2ccc(NS(=O)(=O)c3cc(Cl)cc(Cl)c3)cc2)CC1 | IC50 | 44.9 µM (inactive)

Ask: Using known records, supply IC50 for "CN1CCN(Cc2ccc(NS(=O)(=O)c3cc(Cl)cc(Cl)c3)cc2)CC1"
Reply: 23.3 µM (inactive)

Ask: Using known records, supply IC50 for "CC(C)C1CCN(CCCC(=O)c2ccc(Br)cc2)CC1"
Reply: 10.3 µM

---

- Test system: isolated mouse liver mitochondria, Ca2+ swelling, A540 20 min
- experiment.description: mitochondrial swelling inhibition, absorbance readout – dry powder samples, uHTS hits, dose response (AID 743359)
The source made the active and inactive calls.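 How the source made its calls: active means compounds whose half-maximal inhibitory concentration IC50 is 20 µM or lower; inactive means the rest.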
Entry note: the call must match one of active, inactive

Answered examples (5):
compound | group
O=C(Nc1ccc(F)cc1F)c1cc(-c2ccccc2)on1 | inactive
COc1ccc(C(=O)CCN2CCCC(C)C2)cc1 (stereo unspecified) | inactive
CCN(C(=O)c1cc(Cl)ccc1OC)c1ccccc1 | inactive
O=S(=O)(Nc1ccc(CN2CCCCC2)cc1)c1cccc(Cl)c1 | inactive
CC(C)c1cc(C(=O)Nc2ccc(F)cc2F)no1 | inactive

Ask: What did the test return for "CN1CCN(c2ccc(NS(=O)(=O)c3ccc(F)c(Cl)c3)cc2)CC1" ?
Reply: inactive

Ask: What did the test return for "COc1ccc(Cl)cc1S(=O)(=O)Nc1ccc(CCN2CCCCC2)cc1" ?
Reply: inactive

Ask: What did the test return for "O=C(Nc1cc(Cl)ccc1F)c1cc(-c2cccc(O)c2)on1" ?
Reply: active

Ask: What did the test return for "O=C(Nc1ccc(CN2CCCCC2)cc1)c1cc(OCc2ccccc2)ccc1Cl" ?
Reply: active

Ask: What did the test return for "COc1ccc(Cl)cc1C(=O)Nc1ccc(N2CCCCC2)cc1" ?
Reply: inactive

Ask: What did the test return for "COc1ccc(Cl)cc1C(=O)Nc1ccc(CCN2CCOCC2)cc1" ?
Reply: active

---

- Test system: isolated mouse liver mitochondria, Ca2+ swelling, A540 20 min
- experiment.description: mitochondrial swelling inhibition, absorbance readout – dry powder samples, uHTS hits, dose response (AID 743359)
Activity calls are given as the source filed them.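 Rule for the calls: active = compounds whose half-maximal inhibitory concentration IC50 is 20 µM or lower; inactive = the rest.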
Entry note: the call must match one of true (1) = active, false (0) = inactive

smiles.representation | group
O=S(=O)(Nc1ccc(CN2CCCCC2)cc1)c1ccc(F)c(Cl)c1 | false (0)
CC1(C)CCN(CCCC(=O)c2ccc(Br)cc2)CC1 | true (1)

Ask: What did the test return for "COc1ccc(Cl)cc1C(=O)Nc1ccc(CN2CCOCC2)cc1" ?
Reply: true (1)

Ask: What did the test return for "O=C(Nc1cccc(F)c1)c1cc(-c2cccc(O)c2)on1" ?
Reply: true (1)

---

- System: isolated mouse liver mitochondria, Ca2+ swelling, A540 20 min
- experiment.description: mitochondrial swelling inhibition, absorbance readout – dry powder samples, uHTS hits, dose response (AID 743359)
Activity calls are given as the source filed them.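 How the source made its calls: active means compounds whose half-maximal inhibitory concentration IC50 is 20 µM or lower; inactive means the rest.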
Entry note: the call must match one of 1 (yes) (active), 0 (no) (inactive)

Answered examples (2):
smiles.representation | group
O=C(Nc1cccc(Cl)c1Cl)c1cc(-c2cccc(O)c2)on1 | 1 (yes)
O=C(Nc1cccc(Cl)c1)c1cc(-c2ccc(Cl)cc2)on1 | 0 (no)

Ask: What did the test return for "O=C(Nc1ccc(OCc2ccccc2)c(Cl)c1)c1cc(-c2cccc(O)c2)on1" ?
Reply: 0 (no)

Ask: What did the test return for "O=C(Nc1ccc(Br)cc1)c1cc(C2CC2)on1" ?
Reply: 1 (yes)

Ask: What did the test return for "CCCc1cc(C(=O)Nc2ccc(Br)cc2)no1" ?
Reply: 0 (no)

Ask: What did the test return for "COc1ccc(Cl)c(C(=O)Nc2ccc(CCN3CCN(C)CC3)cc2)c1" ?
Reply: 0 (no)

---

- Tested on: isolated mouse liver mitochondria, Ca2+ swelling, A540 20 min
- experiment.description: mitochondrial swelling inhibition, absorbance readout – dry powder samples, uHTS hits, dose response (AID 743359)
The source made the active and inactive calls.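 How the source made its calls: active means compounds whose half-maximal inhibitory concentration IC50 is 20 µM or lower; inactive means the rest.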
Entry note: the call must match one of t = active, f = inactive

Answered examples (5):
smiles.representation | group
CCc1ccccc1NC(=O)c1cc(-c2ccccc2)on1 | f
O=C(Nc1ccc(CN2CCCCC2)cc1)c1cccc(OCc2ccccc2)c1 | t
O=S(=O)(Nc1ccc(CCN2CCCCC2)cc1)c1ccc(F)c(Cl)c1 | f
COc1ccc(Cl)c(C(=O)Nc2ccc(CN3CCOCC3)cc2)c1 | f
COc1ccc(NC(=O)c2cc(-c3ccc(Cl)cc3)on2)cc1Cl | f

Ask: What did the test return for "COc1ccc(Cl)cc1C(=O)Nc1ccc(N2CCN(C)CC2)cc1" ?
Reply: t

Ask: What did the test return for "COc1ccc(Cl)cc1S(=O)(=O)Nc1ccc(CN2CCN(C)CC2)cc1" ?
Reply: f

Ask: What did the test return for "CN1CCN(c2ccc(Cl)cc2NC(=O)/C=C/c2cccc(F)c2)CC1" ?
Reply: t

Ask: What did the test return for "O=C(Nc1ccc(CN2CCCCC2)cc1)c1cc(Cl)ccc1O" ?
Reply: f

Ask: What did the test return for "Cc1c(Cl)cccc1NC(=O)c1cc(-c2cccc(O)c2)on1" ?
Reply: t

Ask: What did the test return for "COc1ccc(Cl)cc1C(=O)Nc1ccc(CN2CCN(C(=O)OC(C)(C)C)CC2)cc1" ?
Reply: t

---

- Test system: isolated mouse liver mitochondria, Ca2+ swelling, A540 20 min
- experiment.description: mitochondrial swelling inhibition, absorbance readout – dry powder samples, uHTS hits, dose response (AID 743359)
Calls of active or inactive are those of the source.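 Rule for the calls: active = compounds whose half-maximal inhibitory concentration IC50 is 20 µM or lower; inactive = the rest.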
readout.label: IC50

smiles.representation | IC50
O=C(Nc1ccc(Cl)cc1)c1cc(-c2cccc(O)c2)on1 | 0.423 µM
COc1ccc(Cl)c(C(=O)Nc2cccc(CN3CCN(C(=O)OC(C)(C)C)CC3)c2)c1 | > 50 µM (inactive)
COc1ccc(Cl)c(C(=O)Nc2ccc(CN3CCN(C(=O)OC(C)(C)C)CC3)cc2)c1 | 18.2 µM (inactive)
COc1ccc(Cl)cc1S(=O)(=O)Nc1ccc(CCN2CCN(C)CC2)cc1 | > 50 µM (inactive)
Cc1ccc(NC(=O)c2cc(-c3cccc(O)c3)on2)cc1Cl | 0.83 µM
CN1CCN(c2ccc(NC(=O)c3cccc(OCc4ccccc4)c3)cc2)CC1 | 1.92 µM

Ask: Using known records, supply IC50 for "COc1ccc(NC(=O)c2cc(Cl)cc(Cl)c2OC)cc1"
Reply: > 50 µM (inactive)

Ask: Using known records, supply IC50 for "O=S(=O)(Nc1ccc(CCN2CCCCC2)cc1)c1cc(Cl)cc(Cl)c1"
Reply: 25.1 µM (inactive)

Ask: Using known records, supply IC50 for "O=C(Nc1ccc(N2CCCCC2)cc1)c1cccc(OCc2ccccc2)c1"
Reply: > 50 µM (inactive)

Ask: Using known records, supply IC50 for "COc1ccc(/C=C/C(=O)Nc2cccc(Cl)c2)cc1O"
Reply: < 0.391 µM

Ask: Using known records, supply IC50 for "COc1ccc(Cl)cc1C(=O)Nc1cccc(CN2CCNCC2)c1"
Reply: 4.74 µM

Ask: Using known records, supply IC50 for "O=C(Nc1ccccc1C(F)(F)F)c1cc(-c2ccccc2)on1"
Reply: > 50 µM (inactive)

Ask: Using known records, supply IC50 for "Cc1cc(NC(=O)c2ccc(-n3cnnc3)cc2)no1"
Reply: > 50 µM (inactive)

Ask: Using known records, supply IC50 for "O=C(Nc1cccc(Cl)c1)c1cc(-c2cccc(O)c2)on1"
Reply: < 0.391 µM

Ask: Using known records, supply IC50 for "O=C(Nc1ccc(CCN2CCCCC2)cc1)c1cccc(OCc2ccccc2)c1"
Reply: 2.3 µM

Ask: Using known records, supply IC50 for "CN1CCN(CCc2ccc(NS(=O)(=O)c3cccc(Cl)c3)cc2)CC1"
Reply: > 50 µM (inactive)

Ask: Using known records, supply IC50 for "Cc1ccc(Cl)cc1NC(=O)c1cc(-c2cccc(O)c2)on1"
Reply: < 0.391 µM
